- system.name: RNA-directed RNA polymerase (Hepacivirus hominis, UniProt O39930)
- Sequence (O39930 whole entry): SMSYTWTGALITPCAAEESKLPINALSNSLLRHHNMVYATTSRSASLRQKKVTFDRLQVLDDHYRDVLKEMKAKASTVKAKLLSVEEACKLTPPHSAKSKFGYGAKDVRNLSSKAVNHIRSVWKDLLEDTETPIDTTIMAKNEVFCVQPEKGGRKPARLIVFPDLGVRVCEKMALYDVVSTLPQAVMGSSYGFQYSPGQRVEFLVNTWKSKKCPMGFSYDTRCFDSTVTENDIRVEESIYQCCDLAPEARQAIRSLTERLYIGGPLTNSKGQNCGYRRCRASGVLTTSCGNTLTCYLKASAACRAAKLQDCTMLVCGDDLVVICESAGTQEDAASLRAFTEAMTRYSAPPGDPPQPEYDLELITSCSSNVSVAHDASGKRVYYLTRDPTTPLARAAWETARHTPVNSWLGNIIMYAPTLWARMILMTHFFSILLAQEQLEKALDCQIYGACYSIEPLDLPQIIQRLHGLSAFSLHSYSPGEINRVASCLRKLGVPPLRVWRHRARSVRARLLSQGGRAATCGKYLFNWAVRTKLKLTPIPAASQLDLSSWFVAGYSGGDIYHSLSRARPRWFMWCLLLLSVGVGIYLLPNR
- assay.remarks: Inhibitory activity against by hepatitis C virus NS5B polymerase
pIC50: −log10 of the molar value.
Would you mind labelling by pIC50? At or over 7 is criterion met, under is criterion not met.

# compound, system.name, category.label
data = [
    ("CN1CCN(C(=O)Cn2c(-c3ccc(Cl)cc3)c(C3CCCCC3)c3ccc(C(=O)O)cc32)CC1", "RNA-directed RNA polymerase (Hepacivirus hominis, UniProt O39930)", "criterion met"),
    ("CN(C)C(=O)Cn1c(-c2cccc(CN3CCCC(F)(F)C3)c2)c(C2CCCCC2)c2ccc(C(=O)O)cc21", "RNA-directed RNA polymerase (Hepacivirus hominis, UniProt O39930)", "criterion met"),
    ("CN1CCCC(CN(C)C(=O)Cn2c(-c3ccccc3)c(C3CCCC3)c3ccc(C(=O)O)cc32)C1 (centres undefined)", "RNA-directed RNA polymerase (Hepacivirus hominis, UniProt O39930)", "criterion met"),
    ("CN(C)C1CCN(C(=O)Cn2c(-c3ccccc3)c(C3CCCCC3)c3cc(C(=O)O)ccc32)C1 (centres undefined)", "RNA-directed RNA polymerase (Hepacivirus hominis, UniProt O39930)", "criterion not met"),
    ("C#Cc1c(C2CCCCC2)c2ccc(C(=O)O)cc2n1CC(=O)N1CCC(N(C)C)CC1", "RNA-directed RNA polymerase (Hepacivirus hominis, UniProt O39930)", "criterion not met"),
    ("CN(C)C1CCN(C(=O)Cn2c(C3=CCCCC3)c(C3CCCCC3)c3ccc(C(=O)O)cc32)CC1", "RNA-directed RNA polymerase (Hepacivirus hominis, UniProt O39930)", "criterion met"),
    ("C=Cc1c(C2CCCCC2)c2ccc(C(=O)O)cc2n1CC(=O)N1CCC(N(C)C)CC1", "RNA-directed RNA polymerase (Hepacivirus hominis, UniProt O39930)", "criterion met"),
]
